Source: paper PMC9021956

# target-entity: HLA-A2402 (Homo sapiens, UniProt P04439, D101N/D140Y/D185E/E176V/E190D/F33S/G103R/G107R/I119L/I121M/I306V/K335N/L105A/L180Q/L300P/N151K/N90K/Q86E/Q94H/R106L/R138H/R89G/T104I/T345S/V100E/W191G/Y123F)
# method-notes: cell-based
# Type: binding
# conditions: HLA-A2402 HMy2.CIR cells; competitor peptide 15μM; 24 hours; flow cytometry
Residues, ends and D or L forms follow the SMILES beside them.
measured-endpoint: inhibition at 15 µM (%)

>>> numeric_readout("CC(C)C[C@H](NC(=O)[C@@H](N)Cc1ccccc1)C(=O)N1CCC[C@H]1C(=O)N[C@@H](CO)C(=O)N[C@@H](CC(=O)O)C(=O)N[C@@H](Cc1ccccc1)C(=O)N[C@@H](Cc1ccccc1)C(=O)N1CCC[C@H]1C(=O)N[C@@H](CO)C(=O)O [Epitope P67] (H-FLPSDFFPS-OH; N-terminus and C-terminus assumed)")
4.3
>>> numeric_readout("CC(C)C[C@H](NC(=O)[C@H](CO)NC(=O)[C@H](Cc1ccccc1)NC(=O)[C@H](Cc1ccccc1)NC(=O)CNC(=O)[C@H](C)NC(=O)[C@H](CCC(N)=O)NC(=O)[C@@H](N)CC(C)C)C(=O)N[C@H](C(=O)N[C@@H](CCCCN)C(=O)O)[C@@H](C)O [Epitope P103] (H-LQAGFFSLTK-OH; N-terminus and C-terminus assumed)")
4.5
>>> numeric_readout("CSCC[C@H](NC(=O)[C@@H](N)CCSC)C(=O)N[C@@H](Cc1c[nH]c2ccccc12)C(=O)N[C@@H](Cc1ccc(O)cc1)C(=O)N[C@@H](Cc1c[nH]c2ccccc12)C(=O)NCC(=O)N1CCC[C@H]1C(=O)N[C@@H](CO)C(=O)N[C@@H](CC(C)C)C(=O)N[C@@H](Cc1ccc(O)cc1)C(=O)O [Epitope P108]")
8

###

# target-entity: HLA-A0101 (Homo sapiens, UniProt P04439, A114D/A174V/A182V/D101N/D185E/E176A/E190D/L180R/Q94H/R68K/S129P/T187R/V100A/V91M/W191G)
# Construct: expressed in transfected cells; host or cells: HMy2.CIR
# method-notes: Peptide competitive binding assay, transfected HMy2.CIR cells, reference YLEPAK(FITC)AKY
# conditions: HLA-A0101 HMy2.CIR cells; competitor peptide 15μM; 24 hours; flow cytometry
Residues, ends and D or L forms follow the SMILES beside them.
Known inhibition at 15 µM of a selection of compounds
measured-endpoint: inhibition at 15 µM (%)

>>> numeric_readout("CSCC[C@H](NC(=O)[C@@H](N)CCSC)C(=O)N[C@@H](Cc1c[nH]c2ccccc12)C(=O)N[C@@H](Cc1ccc(O)cc1)C(=O)N[C@@H](Cc1c[nH]c2ccccc12)C(=O)NCC(=O)N1CCC[C@H]1C(=O)N[C@@H](CO)C(=O)N[C@@H](CC(C)C)C(=O)N[C@@H](Cc1ccc(O)cc1)C(=O)O [Epitope P108]")
13.8
>>> numeric_readout("CC(C)C[C@H](NC(=O)[C@H](CCC(=O)O)NC(=O)[C@H](CCCNC(=N)N)NC(=O)[C@H](CO)NC(=O)[C@H](C)N)C(=O)N[C@H](C(=O)N[C@H](C(=O)N[C@@H](CO)C(=O)N[C@@H](Cc1ccc(O)cc1)C(=O)O)C(C)C)C(C)C [Epitope P88] (H-ASRELVVSY-OH; N-terminus and C-terminus assumed)")
9

###

# target-entity: HLA-A1101 (Homo sapiens, UniProt P04439, A114D/D185E/E176A/F33Y/L180Q/S129P/T187R)
# Construct: expressed in transfected cells; host or cells: HMy2.CIR
# method-notes: cell-based
# Format: binding
# conditions: HLA-A1101 HMy2.CIR cells; competitor peptide 15μM; 24 hours; flow cytometry; read-out: 15μM Inhibition (%)
Residues, ends and D or L forms follow the SMILES beside them.
Known inhibition at 15 µM of a selection of compounds
measured-endpoint: inhibition at 15 µM (%)

>>> numeric_readout("CC(C)C[C@H](NC(=O)[C@H](Cc1ccccc1)NC(=O)[C@H](Cc1ccccc1)NC(=O)CNC(=O)[C@H](C)NC(=O)[C@@H](N)CCC(N)=O)C(=O)N[C@@H](CC(C)C)C(=O)N[C@H](C(=O)N[C@@H](CCCNC(=N)N)C(=O)O)[C@@H](C)O [Epitope P41] (H-QAGFFLLTR-OH; N-terminus and C-terminus assumed)")
12.9
>>> numeric_readout("CC(C)C[C@H](NC(=O)[C@H](CO)NC(=O)[C@H](CC(C)C)NC(=O)[C@@H](N)Cc1c[nH]c2ccccc12)C(=O)N[C@@H](CC(C)C)C(=O)N[C@H](C(=O)N1CCC[C@H]1C(=O)N[C@@H](Cc1ccccc1)C(=O)N[C@H](C(=O)O)C(C)C)C(C)C [Epitope P7]")
3.11

###

Known inhibition at 5 µM of a selection of compounds
# target-entity: HLA-A1102 (Homo sapiens, UniProt P04439, A114D/D185E/E176A/E43K/F33Y/L180Q/S129P/T187R)
# Construct: expressed in transfected cells; host or cells: HMy2.CIR
# method-notes: Peptide competitive binding assay, transfected HMy2.CIR cells, reference ATFQFK(FITC)VER
# conditions: HLA-A1102 HMy2.CIR cells; competitor peptide 5μM; 24 hours; flow cytometry; read-out: 5μM Inhibition (%)
Residues, ends and D or L forms follow the SMILES beside them.
measured-endpoint: inhibition at 5 µM (%)

>>> numeric_readout("CC(C)C[C@H](NC(=O)[C@H](CO)NC(=O)[C@H](Cc1ccccc1)NC(=O)[C@H](Cc1ccccc1)NC(=O)CNC(=O)[C@H](C)NC(=O)[C@H](CCC(N)=O)NC(=O)[C@@H](N)CC(C)C)C(=O)N[C@H](C(=O)N[C@@H](CCCCN)C(=O)O)[C@@H](C)O [Epitope P103] (H-LQAGFFSLTK-OH; N-terminus and C-terminus assumed)")
18.9
>>> numeric_readout("CC(C)C[C@H](NC(=O)[C@H](CC(N)=O)NC(=O)CNC(=O)[C@H](Cc1c[nH]cn1)NC(=O)[C@H](C)NC(=O)[C@H](CC(N)=O)NC(=O)[C@@H](NC(=O)[C@@H](N)[C@@H](C)O)C(C)C)C(=O)N1CCC[C@H]1C(=O)N[C@@H](CCCCN)C(=O)O [Epitope P47] (H-TVNAHGNLPK-OH; N-terminus and C-terminus assumed)")
24.7
>>> numeric_readout("CC(C)C[C@H](NC(=O)[C@H](Cc1ccccc1)NC(=O)[C@H](C)NC(=O)[C@H](CCCCN)NC(=O)[C@H](Cc1ccc(O)cc1)NC(=O)[C@@H](NC(=O)[C@@H]1CCCN1)[C@@H](C)O)C(=O)N[C@@H](CS)C(=O)N[C@@H](CCCCN)C(=O)O [Epitope P16] (H-PTYKAFLCK-OH; N-terminus and C-terminus assumed)")
13.7

###

Known inhibition at 15 µM of a selection of compounds
# target-entity: HLA-A0203 (Homo sapiens, UniProt P04439, A173T/D140Y/D185E/D98H/E277Q/G131W/G231S/I119V/I121R/I166T/I218V/L180W/L300P/L318F/N151K/N90K/P208A/P217A/Q86G/Q94H/R138H/R169H/T345S)
# Construct: expressed in transfected cells; host or cells: HMy2.CIR
# method-notes: cell-based
# Format: binding
# conditions: HLA-A0203 HMy2.CIR cells; competitor peptide 15μM; 24 hours; flow cytometry
Residues, ends and D or L forms follow the SMILES beside them.
measured-endpoint: inhibition at 15 µM (%)

>>> numeric_readout("CC(C)C[C@H](NC(=O)[C@H](CO)NC(=O)[C@H](CC(C)C)NC(=O)[C@@H](N)Cc1c[nH]c2ccccc12)C(=O)N[C@@H](CC(C)C)C(=O)N[C@H](C(=O)N1CCC[C@H]1C(=O)N[C@@H](Cc1ccccc1)C(=O)N[C@H](C(=O)O)C(C)C)C(C)C [Epitope P7]")
98.7
>>> numeric_readout("CC(C)C[C@H](NC(=O)[C@@H](N)Cc1ccccc1)C(=O)N1CCC[C@H]1C(=O)N[C@@H](CO)C(=O)N[C@@H](CC(=O)O)C(=O)N[C@@H](Cc1ccccc1)C(=O)N[C@@H](Cc1ccccc1)C(=O)N1CCC[C@H]1C(=O)N[C@@H](CO)C(=O)N[C@H](C(=O)O)C(C)C [Epitope P1]")
92.1
>>> numeric_readout("CC[C@H](C)[C@H](N)C(=O)N[C@@H](CC(C)C)C(=O)N[C@@H](CO)C(=O)N[C@H](C(=O)N[C@@H](CC(C)C)C(=O)N1CCC[C@H]1C(=O)N[C@@H](CCC(=O)O)C(=O)N[C@H](C(=O)N[C@H](C(=O)N[C@H](C(=O)O)C(C)C)[C@@H](C)O)[C@@H](C)O)[C@@H](C)O [Epitope P96]")
99.4
>>> numeric_readout("CC(C)C[C@H](NC(=O)[C@@H](N)Cc1ccccc1)C(=O)N1CCC[C@H]1C(=O)N[C@@H](CO)C(=O)N[C@@H](CC(=O)O)C(=O)N[C@@H](Cc1ccccc1)C(=O)N[C@@H](Cc1ccccc1)C(=O)N1CCC[C@H]1C(=O)N[C@@H](CO)C(=O)O [Epitope P67] (H-FLPSDFFPS-OH; N-terminus and C-terminus assumed)")
91.5
>>> numeric_readout("CC(C)C[C@H](NC(=O)[C@H](Cc1ccc(O)cc1)NC(=O)[C@H](CCC(=O)O)NC(=O)[C@H](CC(C)C)NC(=O)[C@@H](NC(=O)[C@@H](NC(=O)[C@@H](N)CCC(=O)O)[C@@H](C)O)C(C)C)C(=O)N[C@H](C(=O)N[C@@H](CO)C(=O)N[C@H](C(=O)O)C(C)C)C(C)C [Epitope P118] (H-ETVLEYLVSV-OH; N-terminus and C-terminus assumed)")
17.1
>>> numeric_readout("CC[C@H](C)[C@H](NC(=O)[C@H](CO)NC(=O)[C@@H]1CCCN1C(=O)[C@H](Cc1ccccc1)NC(=O)[C@H](Cc1ccccc1)NC(=O)[C@H](CC(=O)O)NC(=O)[C@H](CO)NC(=O)[C@@H]1CCCN1C(=O)[C@H](CC(C)C)NC(=O)[C@@H](N)Cc1ccccc1)C(=O)O [Epitope P31]")
90.9
>>> numeric_readout("CC(C)C[C@H](NC(=O)[C@H](CO)NC(=O)[C@H](CC(C)C)NC(=O)[C@@H](N)Cc1c[nH]cn1)C(=O)N[C@@H](CCCNC(=N)N)C(=O)NCC(=O)N[C@@H](CC(C)C)C(=O)N1CCC[C@H]1C(=O)N[C@H](C(=O)O)C(C)C [Epitope P100] (H-HLSLRGLPV-OH; N-terminus and C-terminus assumed)")
98.9
>>> numeric_readout("CC[C@H](C)[C@H](NC(=O)[C@H](CC(C)C)NC(=O)[C@@H](N)CCCCN)C(=O)NCC(=O)N[C@H](C(=O)N[C@@H](CC(=O)O)C(=O)N[C@@H](CC(N)=O)C(=O)N[C@@H](CO)C(=O)N[C@H](C(=O)O)C(C)C)[C@@H](C)O [Epitope P34] (H-KLIGTDNSV-OH; N-terminus and C-terminus assumed)")
69.3
